# method: qHTS of pediatric cancer cell lines to identify multiple opportunities for drug repurposing: Confirmatory screen for NB-EBc1 cells (AID 1347115);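 note: potency is the fitted concentration of half-maximal effect; cells exposed to compound for 48 h before the viability read; nearly all actives have a fitted effect of over 45% in size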
# experimental setup: NB-EBc1 neuroblastoma cells, viability (cytotoxicity); series mostly up to 45.9 µM
Records with an inconclusive call do not appear. Activity calls are given as the source filed them. Calls come from the whole dose curve; as a rule, active = well fitted cell-killing curve with a large enough effect; inconclusive = small, poorly fitted or top-dose-only effect, or effect the other way; inactive = no such curve, though single readings can be large or run the other way.
value type: Potency

# count of solved cases: 3
>>> readout_value("CC1(C)OC2=C(C(=O)c3ccccc3C2=O)[C@H](NCc2ccccc2)[C@H]1O")
"9.27 µM (active)"
>>> readout_value("C[C@@H](Oc1cc(-n2cnc3ccc(CN4CCN(C)CC4)cc32)sc1C(N)=O)c1ccccc1C(F)(F)F")
"0.24 µM (active)"
>>> readout_value("C=CC(=O)Nc1cc2c(Nc3ccc(F)c(Cl)c3)ncnc2cc1C#CC(C)(C)N1CCN(C)CC1")
"15.1 µM (active)"

Then there is this compound:
Task: Look up Potency of "CNC(=O)CN1CCC(Oc2cc3c(Nc4cccc(Cl)c4F)ncnc3cc2OC)CC1" and report it.
Output: 4.65 µM (active)

###

# Test system: CP247
# method: qHTS profiling for inhibitors of Plasmodium falciparum proliferation (AID 504749); note: nearly all actives have a fitted effect of over 60% in size
# experimental setup: P. falciparum in erythrocytes, SYBR Green DNA, 72 h; series mostly up to 28.7 µM
Results filed as inconclusive are left out. Active and inactive are the calls of the source. The call rests on the fitted dose curve; in most records, active means well fitted inhibition curve with a large enough effect; inconclusive means small, poorly fitted or top-dose-only effect; inactive means flat fitted curve, though single readings scatter.
Respond only with the outcome that fits, drawn from active, inactive

Known results for compounds:
>>> label_value("CC(C)(C)NC(=O)[C@H]1CN(Cc2cccnc2)CCN1C[C@@H](O)C[C@@H](Cc1ccccc1)C(=O)N[C@H]1c2ccccc2C[C@H]1O")
"active"
>>> label_value("Nc1ccc(S(=O)(=O)Nc2ncccn2)cc1")
"inactive"
>>> label_value("COc1c(N2C[C@@H]3CCCN[C@H]3C2)c(F)cc2c(=O)c(C(=O)O)cn(C3CC3)c12")
"inactive"
>>> label_value("CC=CC1=C(C(=O)O)N2C(=O)[C@H](NC(=O)[C@H](N)c3ccc(O)cc3)[C@@H]2SC1")
"inactive"
>>> label_value("CN1c2cc(O)c(N=NC(N)=O)cc2CC1S(=O)(=O)O (stereo not given)")
"inactive"

Task: Which outcome did this test record for the compound "CCC1=C[C@@H]2CN(C1)Cc1c([nH]c3ccccc13)[C@@](C(=O)OC)(c1cc3c(cc1OC)N(C)[C@@H]1[C@@](O)(C(=O)OC)[C@H](OC(C)=O)[C@]4(CC)C=CCN5CC[C@]31[C@@H]54)C2" ?
Output: active

Task: Which outcome did this test record for the compound "Nc1ccn([C@@H]2O[C@H](CO)[C@H](O)C2(F)F)c(=O)n1" ?
Output: active

Task: Which outcome did this test record for the compound "CC1(C)O[C@@H]2C[C@@H]3[C@H]4C[C@@H](F)C5=CC(=O)C=C[C@]5(C)[C@@]4(F)[C@@H](O)C[C@]3(C)[C@]2(C(=O)CO)O1" ?
Output: inactive

Task: Which outcome did this test record for the compound O=c1[nH]c(=O)n(C2CCCO2)cc1F (stereo not given) ?
Output: inactive

Task: Which outcome did this test record for the compound "Nc1ccn([C@@H]2CS[C@H](CO)O2)c(=O)n1" ?
Output: inactive

###

# System: FAB9
# method: qHTS profiling for inhibitors of Plasmodium falciparum proliferation (AID 504749); note: nearly all actives have a fitted effect of over 60% in size; note: potency is the fitted concentration of half-maximal effect
# experimental setup: P. falciparum in erythrocytes, SYBR Green DNA, 72 h; series mostly up to 28.7 µM
Records with an inconclusive call do not appear. Active and inactive are the calls of the source. Calls follow the shape of the dose curve; as a rule, active = well fitted inhibition curve with a large enough effect; inconclusive = small, poorly fitted or top-dose-only effect; inactive = flat fitted curve, though single readings scatter.
value type: Potency

>>> readout_value("O=C(O)CO.[NH2-].[NH2-].[Pt+2]")
"inactive"
>>> readout_value("C[C@H]1C[C@@H]2[C@@H]([C@@H](O)C[C@@]3(C)[C@H]2CC[C@]3(O)C(=O)CO)[C@@]2(C)C=CC(=O)C=C12")
"inactive"
>>> readout_value("Nc1ccn([C@@H]2O[C@H](CO)[C@H](O)C2(F)F)c(=O)n1")
"1410 nM (active)"
>>> readout_value("COc1cc(C(=O)NS(=O)(=O)c2ccccc2C)ccc1Cc1cn(C)c2ccc(NC(=O)OC3CCCC3)cc12")
"inactive"

###

# Test system: P94_40
# method: qHTS profiling for inhibitors of Plasmodium falciparum proliferation (AID 504749); note: nearly all actives have a fitted effect of over 60% in size
# experimental setup: P. falciparum in erythrocytes, SYBR Green DNA, 72 h; series mostly up to 28.7 µM
Results filed as inconclusive are left out. Activity calls are given as the source filed them. Calls come from the whole dose curve; as a rule, active = well fitted inhibition curve with a large enough effect; inconclusive = small, poorly fitted or top-dose-only effect; inactive = flat fitted curve, though single readings scatter.
Respond only with the outcome that fits, drawn from active, inactive

Known results for molecules:
>>> label_value("C[C@H]1C[C@@H]2[C@@H]([C@@H](O)C[C@@]3(C)[C@H]2CC[C@]3(O)C(=O)CO)[C@@]2(C)C=CC(=O)C=C12")
"inactive"
>>> label_value("O=C(O)CO.[NH2-].[NH2-].[Pt+2]")
"inactive"
>>> label_value("CC(C)(C)NC(=O)[C@H]1CN(Cc2cccnc2)CCN1C[C@@H](O)C[C@@H](Cc1ccccc1)C(=O)N[C@H]1c2ccccc2C[C@H]1O")
"active"

Now look at this one.
Task: Which outcome did this test record for the molecule "Nc1ccc(S(=O)(=O)Nc2ncccn2)cc1" ?
Output: inactive

###

# method: Quantitative High-Throughput drug screen in 47 multiple myeloma cell lines against the NCATS MIPE library collection: Karpas417_ECACC cell viability assay (AID 1918961)
# experimental setup: Karpas417 myeloma viability, CellTiter-Glo ATP luminescence, 48 h
# Excerpt: PI: Beverly A. Mock Ph.D. Laboratory of Cancer Biology and Genetics, Center for Cancer Research, National Cancer Institute, National Institute of Health, Bethesda, Maryland […] 5; Detector; 425V; Luminescence; Viewlux PerkinElmer. […] 1. […] Briefly, the corresponding myeloma cell lines were screened in 1,536-well plates with 500 cells, 5-uL per well for inhibition of cell viability (assessed by measuring ATP levels with CellTiterGlo). […]
Inconclusive results are not listed. Active and inactive are the calls of the source. The call rests on the fitted dose curve; in most records, active means well fitted cell-killing curve with a large enough effect; inconclusive means small, poorly fitted or top-dose-only effect, or effect the other way; inactive means no such curve, though single readings can be large or run the other way.
Respond only with the outcome that fits, drawn from yes for active, no for inactive

Known results for compounds:
>>> label_value("C[C@]1(CO)CN(c2cc(C(=O)Nc3ccc4c(c3)-c3c(c(C(N)=O)nn3-c3ccc(F)cc3)CC4)c(Cl)cn2)C[C@@]1(C)CO")
"yes"
>>> label_value("O=C(CCCCCCNC(=O)c1cnc(N(c2ccccc2)c2ccccc2)nc1)NO")
"yes"
>>> label_value("CCNC(=O)Nc1ccc2ncc(Nc3ccc(C)cc3)nc2n1")
"yes"

Task: Which outcome did this test record for the compound "O=C(NC1CCNCC1)c1[nH]ncc1NC(=O)c1c(Cl)cccc1Cl" ?
Output: yes

Task: Which outcome did this test record for the compound "CC=CC1=C(C(=O)O)N2C(=O)[C@H](NC(=O)[C@H](N)c3ccc(O)cc3)[C@@H]2SC1" ?
Output: no

Task: Which outcome did this test record for the compound "OCCCNc1cc(-c2ccnc(Nc3cccc(Cl)c3)n2)ccn1" ?
Output: yes

Task: Which outcome did this test record for the compound "C=CC(=O)Nc1cccc(Oc2nc(Nc3ccc(N4CCN(C)CC4)cc3OC)ncc2Cl)c1" ?
Output: no

Task: Which outcome did this test record for the compound "Fc1cc(-c2cccc3ncc(-c4cnn(C5CCNCC5)c4)nc23)cc(F)c1CN1CCOCC1" ?
Output: yes

Task: Which outcome did this test record for the compound "CC(C)(C)c1cnc(CSc2cnc(NC(=O)C3CCNCC3)s2)o1" ?
Output: yes

###

# method: qHTS for identification of novel therapeutic agents for treatment of microphthalmiaassociated transcription factor (MiT) renal cell carcinoma (RCC) (AID 1963991);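 note: curves scaled with 100% = DMSO viability and 0% = empty wells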
# experimental setup: TFE3-RCC viability, CellTiter-Glo, 48 h; measured here: UOK124 Z-AUC; stronger effect = lower value
Inconclusive results are not listed.
value type: z-score

# count of solved cases: 4
>>> readout_value("CC=C1NC(=O)[C@H]2CSSCCC=C[C@H](CC(=O)N[C@H](C(C)C)C(=O)N2)OC(=O)[C@H](C(C)C)NC1=O")
-4.08
>>> readout_value("COC(=O)C1=C(C)NC(C)=C(C(=O)OCCN2CCN(C(c3ccccc3)c3ccccc3)CC2)C1c1cccc([N+](=O)[O-])c1 (stereo not given)")
0.516
>>> readout_value("Cc1nc2cnc3ccc(C#Cc4cccnc4)cc3c2n1-c1ccc(C(C)(C)C#N)cc1")
-4.34
>>> readout_value("Clc1cccc(-c2nnnn2Cc2cccnc2)c1Cl")
0.545

Task: Look up z-score of "NC(=O)Nc1cc(-c2cccc(F)c2)sc1C(=O)N[C@H]1CCCNC1" and report it.
Output: -1.69

###

# method: Quantitative High-Throughput drug screen in 47 multiple myeloma cell lines against the NCATS MIPE library collection: VP6_DJ cell viability assay (AID 1919867); note: potency is the fitted concentration of half-maximal effect; nearly all actives have a fitted effect of over 40% in size
# experimental setup: ATP luminescence, 48 h; series mostly up to 45.8 µM
Results filed as inconclusive are left out. Calls of active or inactive are those of the source. Calls come from the whole dose curve; as a rule, active = well fitted cell-killing curve with a large enough effect; inconclusive = small, poorly fitted or top-dose-only effect, or effect the other way; inactive = no such curve, though single readings can be large or run the other way.
Field: Potency. Provide a value for each of the compounds that follow.

# count of solved cases: 3
>>> readout_value("Cn1cncc1[C@@](N)(c1ccc(Cl)cc1)c1ccc2c(c1)c(-c1cccc(Cl)c1)cc(=O)n2C")
"14800 nM (active)"
>>> readout_value("CC(C)(C)c1cnc(CSc2cnc(NC(=O)C3CCNCC3)s2)o1")
"148 nM (active)"
>>> readout_value("COC(=O)[C@]12CCC(C)(C)C[C@@H]1[C@@H]1C(=O)C=C3[C@@]4(C)C=C(C#N)C(=O)C(C)(C)[C@@H]4CC[C@@]3(C)[C@]1(C)CC2")
"264 nM (active)"

# map each compound to its Potency
1. CN1CC[C@@H](c2c(O)cc(O)c3c(=O)cc(-c4ccccc4Cl)oc23)[C@@H](O)C1
2. Cc1ccc(C(N)=O)cc1Nc1nccc(-c2cn(C(C)C)c3cnccc23)n1

Output:
["52.6 nM (active)", "2350 nM (active)"]

# map each compound to its Potency
1. COc1ccc(C(=O)CC2(O)C(=O)Nc3c(Cl)ccc(Cl)c32)cc1 (centres undefined)
2. COc1cc(OC2CCN(C)CC2)ccc1Nc1ncc2c(n1)n(C1CCCC1)c(=O)n2C
3. COc1ccc2c(c1)CC[C@@H](CN(C)CC(=O)O)[C@H]2c1ccccc1

Output:
1: 2960 nM (active); 2: 4180 nM (active); 3: 1870 nM (active)
